Data provenance is patent US9133207B2.

Tested on: A549 (human lung cancer)
assay.procedure: Solid tumor cell growth inhibition, MTT, 72 h (Example 7)
Assay type: cell-based
measurement.setup: Homo sapiens; 72 h, MTT, A549
outcome.measure: IC50 (µg/mL)
Number only, in µg/mL; omit the unit.

Below are worked cases with known answers.
molecule	value.reported
CCN1CCN(Cc2c3c4c(c(OC)c2OC)Oc2cc5c(cc2OC)CCN(C)[C@H]5Cc2ccc(cc2)Oc2cc(ccc2OC)C[C@@H]4N(C)CC3)CC1	3.2
COc1ccc2cc1Oc1ccc(cc1)C[C@H]1c3cc(c(OC)cc3CCN1C)Oc1c(OC)c(OC)c(CN3CC=CC3)c3c1[C@H](C2)N(C)CC3	2.36
COc1ccc2cc1Oc1ccc(cc1)C[C@H]1c3cc(c(OC)cc3CCN1C)Oc1c(OC)c(OC)c(CNCC(C)O)c3c1[C@H](C2)N(C)CC3 (some centres unmarked)	1.96
COc1ccc2cc1Oc1ccc(cc1)C[C@H]1c3cc(c(OC)cc3CCN1C)Oc1c(OC)c(OC)c(CN3CCN(CCO)CC3)c3c1[C@H](C2)N(C)CC3	4
COc1ccc2cc1Oc1ccc(cc1)C[C@H]1c3cc(c(OC)cc3CCN1C)Oc1c(OC)c(OC)c(COCc3cccnc3)c3c1[C@H](C2)N(C)CC3	5.5
COc1ccc2cc1Oc1ccc(cc1)C[C@H]1c3cc(c(OC)cc3CCN1C)Oc1c(OC)c(OC)c(COCCOc3ccccc3)c3c1[C@H](C2)N(C)CC3	1.35

Kindly note: A549 (human lung cancer), COc1ccc2cc1Oc1ccc(cc1)C[C@H]1c3cc(c(OC)cc3CCN1C)Oc1c(OC)c(OC)c(CNCc3ccc(C)o3)c3c1[C@H](C2)N(C)CC3 , IC50 value reported: 4

----------
IC90 overview
System: A549 (human lung cancer)
assay.procedure: Solid tumor cell growth inhibition, MTT, 72 h (Example 7)
Type: cell-based
measurement.setup: Homo sapiens; 72 h, MTT, A549
Number only, in µg/mL; omit the unit.

Below are worked cases with known answers.
compound	outcome.measure	value.reported
COc1ccc2cc1Oc1ccc(cc1)C[C@H]1c3cc(c(OC)cc3CCN1C)Oc1c(OC)c(OC)c(CN3CCC(O)CC3)c3c1[C@H](C2)N(C)CC3 [BS-TE-308]	IC90	11.2
COc1ccc2cc1Oc1ccc(cc1)C[C@H]1c3cc(c(OC)cc3CCN1C)Oc1c(OC)c(OC)c(CN3CCCC(C)C3)c3c1[C@H](C2)N(C)CC3 (stereo partly drawn) [BS-TE-346]	IC90	8
COc1ccc2cc1Oc1ccc(cc1)C[C@H]1c3cc(c(OC)cc3CCN1C)Oc1c(OC)c(OC)c(CN3CCC(C#N)CC3)c3c1[C@H](C2)N(C)CC3 [BS-TE-323]	IC90	16

Consider COc1ccc2cc1Oc1ccc(cc1)C[C@H]1c3cc(c(OC)cc3CCN1C)Oc1c(OC)c(OC)c(CN3CCN(c4ccccc4)CC3)c3c1[C@H](C2)N(C)CC3 [BS-TE-343] . Its measured IC90 is 12

Consider COc1ccc2cc1Oc1ccc(cc1)C[C@H]1c3cc(c(OC)cc3CCN1C)Oc1c(OC)c(OC)c(CN(C)[C@@H](C)c3ccccc3)c3c1[C@H](C2)N(C)CC3 [BS-TE-317] . Its measured IC90 is 5.8

----------
IC90 overview
Test system: MGC 803 (human gastric cancer cell)
assay.procedure: Solid tumor cell growth inhibition, MTT, 72 h (Example 7)
Type: cell-based
measurement.setup: Homo sapiens
Number only, in µg/mL; omit the unit.

Below are worked cases with known answers.
compound	test.system	unit.string	IC90
COc1ccc2cc1Oc1ccc(cc1)C[C@H]1c3cc(c(OC)cc3CCN1C)Oc1c(OC)c(OC)c(CN3CCCC(CO)C3)c3c1[C@H](C2)N(C)CC3 (stereo partly drawn)	MGC 803 (human gastric cancer cell)	µg/mL	7.42
COc1ccc2cc1Oc1ccc(cc1)C[C@H]1c3cc(c(OC)cc3CCN1C)Oc1c(OC)c(OC)c(COC(=O)c3ccccc3)c3c1[C@H](C2)N(C)CC3	MGC 803 (human gastric cancer cell)	µg/mL	3.72
COc1ccc2cc1Oc1ccc(cc1)C[C@H]1c3cc(c(OC)cc3CCN1C)Oc1c(OC)c(OC)c(CN3CCC(N(C)C)CC3)c3c1[C@H](C2)N(C)CC3	MGC 803 (human gastric cancer cell)	µg/mL	3.93
COc1ccc2cc1Oc1ccc(cc1)C[C@H]1c3cc(c(OC)cc3CCN1C)Oc1c(OC)c(OC)c(COCc3ccc(F)cc3)c3c1[C@H](C2)N(C)CC3	MGC 803 (human gastric cancer cell)	µg/mL	3.97
COc1ccc2cc1Oc1ccc(cc1)C[C@H]1c3cc(c(OC)cc3CCN1C)Oc1c(OC)c(OC)c(COCc3cccnc3)c3c1[C@H](C2)N(C)CC3	MGC 803 (human gastric cancer cell)	µg/mL	9.02
COc1ccc2cc1Oc1ccc(cc1)C[C@H]1c3cc(c(OC)cc3CCN1C)Oc1c(OC)c(OC)c(CN(C)C)c3c1[C@H](C2)N(C)CC3	MGC 803 (human gastric cancer cell)	µg/mL	15.1
COc1ccc2cc1Oc1ccc(cc1)C[C@H]1c3cc(c(OC)cc3CCN1C)Oc1c(OC)c(OC)c(CNCC(C)O)c3c1[C@H](C2)N(C)CC3 (stereo partly drawn)	MGC 803 (human gastric cancer cell)	µg/mL	10.5
COCc1c2c3c(c(OC)c1OC)Oc1cc4c(cc1OC)CCN(C)[C@H]4Cc1ccc(cc1)Oc1cc(ccc1OC)C[C@@H]3N(C)CC2	MGC 803 (human gastric cancer cell)	µg/mL	7.56

Consider COc1ccc2cc1Oc1ccc(cc1)C[C@H]1c3cc(c(OC)cc3CCN1C)Oc1c(OC)c(OC)c(CN3CCN(C)CC3)c3c1[C@H](C2)N(C)CC3 . Its measured IC90 is 5.17

Consider COc1ccc2cc1Oc1ccc(cc1)C[C@H]1c3cc(c(OC)cc3CCN1C)Oc1c(OC)c(OC)c(CN3CCN(C(C)C)CC3)c3c1[C@H](C2)N(C)CC3 . Its measured IC90 is 5.3

Consider COc1ccc2cc1Oc1ccc(cc1)C[C@H]1c3cc(c(OC)cc3CCN1C)Oc1c(OC)c(OC)c(CSc3ccccc3)c3c1[C@H](C2)N(C)CC3 . Its measured IC90 is 4.8

Consider COc1ccc2cc1Oc1ccc(cc1)C[C@H]1c3cc(c(OC)cc3CCN1C)Oc1c(OC)c(OC)c(CN3CCCC(C)C3)c3c1[C@H](C2)N(C)CC3 (stereo partly drawn) . Its measured IC90 is 4.98

----------
System: H9 (acute lymphoblastic leukemia, ALL)
assay.procedure: Leukemia cell growth inhibition, MTT, 72 h (Example 5)
Assay type: cell-based, human
measurement.setup: Homo sapiens; 72 h, MTT
outcome.measure: IC50 (µg/mL)
Number only, in µg/mL; omit the unit.

Below are worked cases with known answers.
compound	IC50 (µg/mL)
COc1ccc2cc1Oc1ccc(cc1)C[C@H]1c3cc(c(OC)cc3CCN1C)Oc1c(OC)c(OC)c(CNC3CC3)c3c1[C@H](C2)N(C)CC3 [BS-TE-301]	1.02
COc1ccc2cc1Oc1ccc(cc1)C[C@H]1c3cc(c(OC)cc3CCN1C)Oc1c(OC)c(OC)c(COCc3ccc(F)cc3)c3c1[C@H](C2)N(C)CC3 [BS-TE-408]	2.5
COc1ccc2cc1Oc1ccc(cc1)C[C@H]1c3cc(c(OC)cc3CCN1C)Oc1c(OC)c(OC)c(CN3CCCC(CO)C3)c3c1[C@H](C2)N(C)CC3 (stereo partly drawn) [BS-TE-351]	0.72

Consider COc1ccc2cc1Oc1ccc(cc1)C[C@H]1c3cc(c(OC)cc3CCN1C)Oc1c(OC)c(OC)c(CNC(C)C)c3c1[C@H](C2)N(C)CC3 [BS-TE-311] . Its measured IC50 is 2.29

Consider COc1ccc2cc1Oc1ccc(cc1)C[C@H]1c3cc(c(OC)cc3CCN1C)Oc1c(OC)c(OC)c(CNCc3cccnc3)c3c1[C@H](C2)N(C)CC3 [BS-TE-348] . Its measured IC50 is 1.33

Consider COc1ccc2cc1Oc1ccc(cc1)C[C@H]1c3cc(c(OC)cc3CCN1C)Oc1c(OC)c(OC)cc3c1[C@H](C2)N(C)CC3 [TTD, reference compound] . Its measured IC50 is 2.69

----------
log10 of IC50 overview
Tested on: RPMI8226 (multiple myeloma)
assay.procedure: Multiple myeloma cell growth inhibition, MTT, 72 h (Example 6)
Type: cell-based, human
measurement.setup: Homo sapiens, RPMI-8226; 72 h, MTT, RPMI8226
Each number you see is log10 of IC50, and the unit inside the log is µg/mL.

Below are worked cases with known answers.
molecule	log10 of IC50
COc1ccc2cc1Oc1ccc(cc1)C[C@H]1c3cc(c(OC)cc3CCN1C)Oc1c(OC)c(OC)c(CN3CCN(C)CC3)c3c1[C@H](C2)N(C)CC3	-1.30
COc1ccc2cc1Oc1ccc(cc1)C[C@H]1c3cc(c(OC)cc3CCN1C)Oc1c(OC)c(OC)c(CNCc3ccccn3)c3c1[C@H](C2)N(C)CC3	-1.05
COc1ccc2cc1Oc1ccc(cc1)C[C@H]1c3cc(c(OC)cc3CCN1C)Oc1c(OC)c(OC)c(CNC3CC3)c3c1[C@H](C2)N(C)CC3	-1.22
COc1ccc2cc1Oc1ccc(cc1)C[C@H]1c3cc(c(OC)cc3CCN1C)Oc1c(OC)c(OC)cc3c1[C@H](C2)N(C)CC3 [TTD, reference compound]	-0.43
COc1ccc2cc1Oc1ccc(cc1)C[C@H]1c3cc(c(OC)cc3CCN1C)Oc1c(OC)c(OC)c(COC(=O)c3ccccc3)c3c1[C@H](C2)N(C)CC3	-0.57
COc1ccc2cc1Oc1ccc(cc1)C[C@H]1c3cc(c(OC)cc3CCN1C)Oc1c(OC)c(OC)c(COCCOc3ccccc3)c3c1[C@H](C2)N(C)CC3	-0.60
COc1ccc2cc1Oc1ccc(cc1)C[C@H]1c3cc(c(OC)cc3CCN1C)Oc1c(OC)c(OC)c(CN3CCOCC3)c3c1[C@H](C2)N(C)CC3	-1.15
COc1ccc2cc1Oc1ccc(cc1)C[C@H]1c3cc(c(OC)cc3CCN1C)Oc1c(OC)c(OC)c(CNC(C)C)c3c1[C@H](C2)N(C)CC3	-0.74

Consider CCOCc1c2c3c(c(OC)c1OC)Oc1cc4c(cc1OC)CCN(C)[C@H]4Cc1ccc(cc1)Oc1cc(ccc1OC)C[C@@H]3N(C)CC2 . Its measured log10 of IC50 is -0.55

Consider COc1ccc2cc1Oc1ccc(cc1)C[C@H]1c3cc(c(OC)cc3CCN1C)Oc1c(OC)c(OC)c(CN(C)C)c3c1[C@H](C2)N(C)CC3 . Its measured log10 of IC50 is -0.46

Consider COc1ccc2cc1Oc1ccc(cc1)C[C@H]1c3cc(c(OC)cc3CCN1C)Oc1c(OC)c(OC)c(COC(=O)c3cccs3)c3c1[C@H](C2)N(C)CC3 . Its measured log10 of IC50 is -0.06

Consider COc1ccc2cc1Oc1ccc(cc1)C[C@H]1c3cc(c(OC)cc3CCN1C)Oc1c(OC)c(OC)c(COCCn3ccnc3)c3c1[C@H](C2)N(C)CC3 . Its measured log10 of IC50 is -0.82
